Data provenance: the RNAGym collection of RNA variant scans (doi:10.1073/pnas.2313332121)

B1: TPR 5TU (parent)
chain: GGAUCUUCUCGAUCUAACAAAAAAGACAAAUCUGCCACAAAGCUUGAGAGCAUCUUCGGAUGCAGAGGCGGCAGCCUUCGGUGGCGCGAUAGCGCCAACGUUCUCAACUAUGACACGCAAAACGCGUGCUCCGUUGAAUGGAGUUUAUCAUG

variants of: B1; assay: polymerase ribozyme fitness, log enrichment relative to wild type (log ratio); higher = more active; in vitro selection for triplet polymerase activity
This sample holds only a part of the variants without activity.
measuredProperty: polymerase ribozyme fitness (log ratio)

Consider the worked cases shown below.
G88U G141U: -3.23
A49C U77G A121C U148A: ≤ -4.2
C54G A91U: ≤ -4.2
A17U A22C A23G G25A G50C U55A C75A G80A C87U U90C C103A: ≤ -4.2
C75G U134G: -4
A23U A52G C85U A89G A106G G141U U148G: ≤ -4.2

Now for the variant whose polymerase ribozyme fitness (log ratio) we want.
The variant listed as C10G G46A U55A G65A A73G U134A shows polymerase ribozyme fitness (log ratio) equal to ≤ -4.2
